Taken from paper PMC12207370.

Target: biotinylated CD59 (Homo sapiens, UniProt P13987)
Construct: Recombinant soluble human CD59 with an additional C-terminal cysteine residue
Sequence (P13987 26-102 limits assumed): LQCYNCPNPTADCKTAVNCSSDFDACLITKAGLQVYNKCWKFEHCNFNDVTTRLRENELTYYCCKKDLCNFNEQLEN
Test: mRNA-display cyclic peptide screen against CD59-biotin, NGS abundance after 6th selection round
Conditions: counts normalised by total counts of NGS sample Seq II, sheet R6
endpoint.label: Percentage of the pool, Seq II (%)
Give the quantity in %, number only.

INSERT INTO results (seq, experimental_system, endpoint_label, units_label, reported_measurement) VALUES
  ('SAWGNRQIQYH', 'biotinylated CD59 (Homo sapiens, UniProt P13987)', 'Percentage of the pool, Seq II', '%', 0.016),
  ('PAWGNRQIQYY', 'biotinylated CD59 (Homo sapiens, UniProt P13987)', 'Percentage of the pool, Seq II', '%', 0.007),
  ('SAWGNRQIKYY', 'biotinylated CD59 (Homo sapiens, UniProt P13987)', 'Percentage of the pool, Seq II', '%', 0.014),
  ('FRGRNDICTH', 'biotinylated CD59 (Homo sapiens, UniProt P13987)', 'Percentage of the pool, Seq II', '%', 0.019),
  ('CSSLRARGWI', 'biotinylated CD59 (Homo sapiens, UniProt P13987)', 'Percentage of the pool, Seq II', '%', 0.007),
  ('CSRLTSRGWT', 'biotinylated CD59 (Homo sapiens, UniProt P13987)', 'Percentage of the pool, Seq II', '%', 0.012),
  ('CFLTRASQLSGT', 'biotinylated CD59 (Homo sapiens, UniProt P13987)', 'Percentage of the pool, Seq II', '%', 0.009),
  ('SWTWGNRSSVSG', 'biotinylated CD59 (Homo sapiens, UniProt P13987)', 'Percentage of the pool, Seq II', '%', 0.00464);

Q) GET /values?readout=Percentage of the pool, Seq II&item= `FARGDWNHQFY`
A) 0.007

Q) GET /values?readout=Percentage of the pool, Seq II&item= `ASWLPSPCKFS`
A) 0.009

Q) GET /values?readout=Percentage of the pool, Seq II&item= `CLRKTRDILSV`
A) 0.014

Q) GET /values?readout=Percentage of the pool, Seq II&item= `WSTRERQISC`
A) 0.007

Q) GET /values?readout=Percentage of the pool, Seq II&item= `SAWGNRQIQCY`
A) 0.012

Q) GET /values?readout=Percentage of the pool, Seq II&item= `RVGSQFCAQL`
A) 0.021

* * *

Target: biotinylated CD59 (Homo sapiens)
Construct: Recombinant soluble human CD59 with an additional C-terminal cysteine residue
Sequence (P13987 26-102 limits assumed): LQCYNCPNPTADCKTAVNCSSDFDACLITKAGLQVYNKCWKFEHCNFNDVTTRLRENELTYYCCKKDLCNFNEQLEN
Assay: mRNA-display cyclic peptide screen against CD59-biotin, NGS abundance after 6th selection round
Settings: counts normalised by total counts of sample Seq I; percentage of the pool, sheet R6
endpoint.label: Percentage Seq I (%)
Give the quantity in %, number only.

INSERT INTO measurements (seq, endpoint_label, reported_measurement) VALUES
  ('FIRGNSTSVLFLRQRQRQLGRGAE', 'Percentage Seq I', 0.060),
  ('FQYFGTGIAFG', 'Percentage Seq I', 0.301),
  ('YARGDASHTIW', 'Percentage Seq I', 0.043);

Q) GET /values?readout=Percentage Seq I&item= `CFASRTLLNTSV`
A) 0.102

Q) GET /values?readout=Percentage Seq I&item= `YLFGDRFSVRG`
A) 0.094

Q) GET /values?readout=Percentage Seq I&item= `CFNSRLHIGAV`
A) 0.041

Q) GET /values?readout=Percentage Seq I&item= `SAWGNRQIQYY`
A) 7.073

* * *

Each item that follows carries a reported Counts Seq I.
Target: biotinylated CD59 (Homo sapiens)
Construct: Recombinant soluble human CD59 with an additional C-terminal cysteine residue
Sequence (P13987 26-102 limits assumed): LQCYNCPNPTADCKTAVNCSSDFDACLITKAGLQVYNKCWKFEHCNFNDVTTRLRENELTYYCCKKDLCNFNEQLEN
Assay: mRNA-display cyclic peptide screen against CD59-biotin, NGS abundance after 6th selection round
Settings: raw NGS counts of peptide sequence, sequencing sample Seq I, sheet R6 (6th selection round)
Give only the figure.

The examples below pair each entry with its known result.
INSERT INTO results (seq, experimental_system, reported_measurement) VALUES
  ('CFTYRLSDEPSA', 'biotinylated CD59 (Homo sapiens)', 169),
  ('CYGGQTFIYAWS', 'biotinylated CD59 (Homo sapiens)', 114),
  ('SRNGIQFTCS', 'biotinylated CD59 (Homo sapiens)', 158);

Then there is this sequence:
Q) Tell me reported Counts Seq I for `SAWGNQQIQYY` , tested with biotinylated CD59 (Homo sapiens).
A) 124

* * *

Molecular target: biotinylated CD59 (Homo sapiens, UniProt P13987)
Construct: Recombinant soluble human CD59 with an additional C-terminal cysteine residue
Sequence (P13987 26-102 limits assumed): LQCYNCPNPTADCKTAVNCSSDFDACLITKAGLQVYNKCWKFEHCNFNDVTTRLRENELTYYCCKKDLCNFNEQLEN
Assay: mRNA-display cyclic peptide screen against CD59-biotin, NGS abundance after 6th selection round
Conditions: NGS sample Seq II, sheet R6 (6th selection round)
Would you mind labelling by Counts (raw counts for peptide sequence), Seq II? At or over 6 is rule met, under is rule not met.

Q) # bool: Counts (raw counts for peptide sequence), Seq II of `TLSTNRDLIRLPAAAAAAARTGGG` >= 6
A) rule met

Q) # bool: Counts (raw counts for peptide sequence), Seq II of `WSTRERQISC` >= 6
A) rule not met

Q) # bool: Counts (raw counts for peptide sequence), Seq II of `CFAGRLTIDAG` >= 6
A) rule not met

Q) # bool: Counts (raw counts for peptide sequence), Seq II of `SWTWGNRTSVRG` >= 6
A) rule met

Q) # bool: Counts (raw counts for peptide sequence), Seq II of `IARGDWNHQFF` >= 6
A) rule not met

Q) # bool: Counts (raw counts for peptide sequence), Seq II of `WIRGNRDESLG` >= 6
A) rule met

Q) # bool: Counts (raw counts for peptide sequence), Seq II of `CFAGRLAIDAV` >= 6
A) rule met

Q) # bool: Counts (raw counts for peptide sequence), Seq II of `IARGGRHFSSG` >= 6
A) rule not met

Q) # bool: Counts (raw counts for peptide sequence), Seq II of `CPRYVSRGFA` >= 6
A) rule not met

Q) # bool: Counts (raw counts for peptide sequence), Seq II of `SAWGNRQIQHY` >= 6
A) rule not met

Q) # bool: Counts (raw counts for peptide sequence), Seq II of `YIRGTQDTFLF` >= 6
A) rule met

Q) # bool: Counts (raw counts for peptide sequence), Seq II of `FARGDRNHQFY` >= 6
A) rule not met

Q) # bool: Counts (raw counts for peptide sequence), Seq II of `FVTGNRDHTHG` >= 6
A) rule not met

Q) # bool: Counts (raw counts for peptide sequence), Seq II of `CYGGRTFIYTWS` >= 6
A) rule not met

Q) # bool: Counts (raw counts for peptide sequence), Seq II of `CFRSRAVSNGT` >= 6
A) rule met

* * *

Each item that follows carries a reported Counts Seq II.
Target: biotinylated CD59 (Homo sapiens)
Construct: Recombinant soluble human CD59 with an additional C-terminal cysteine residue
Sequence (P13987 26-102 limits assumed): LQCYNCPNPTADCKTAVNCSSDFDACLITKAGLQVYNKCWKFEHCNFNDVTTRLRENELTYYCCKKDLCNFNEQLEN
Assay: mRNA-display cyclic peptide screen against CD59-biotin, NGS abundance after 6th selection round
Conditions: raw NGS counts of peptide sequence, sequencing sample Seq II, sheet R6 (6th selection round)
Give only the figure.

The examples below pair each entry with its known result.
INSERT INTO measurements (seq, endpoint_label, reported_measurement) VALUES
  ('FVTGNREHTRG', 'Counts Seq II', 15),
  ('CYGGRTLIYAWS', 'Counts Seq II', 8),
  ('ISWGNGSLAFY', 'Counts Seq II', 50),
  ('STWGNRNETRG', 'Counts Seq II', 11),
  ('VAHGSKNSQFW', 'Counts Seq II', 140),
  ('CEALLRRGWD', 'Counts Seq II', 34);

Q) GET /values?readout=Counts Seq II&item= `FVTGNRDYTRG`
A) 27

Q) GET /values?readout=Counts Seq II&item= `STRRDRLGLIC`
A) 445

Q) GET /values?readout=Counts Seq II&item= `YLFGDRFSVRG`
A) 43

Q) GET /values?readout=Counts Seq II&item= `CFLYRNNPDSV`
A) 29

Q) GET /values?readout=Counts Seq II&item= `LKPNGRCLPKV`
A) 122

Q) GET /values?readout=Counts Seq II&item= `CLRRHVTASDV`
A) 10

Q) GET /values?readout=Counts Seq II&item= `YAWGNRNNAYY`
A) 21

Q) GET /values?readout=Counts Seq II&item= `CIDVYGRMWA`
A) 39

Q) GET /values?readout=Counts Seq II&item= `CFTLRLSQTSV`
A) 69

Q) GET /values?readout=Counts Seq II&item= `CFSARATLDGGW`
A) 13

Q) GET /values?readout=Counts Seq II&item= `CHGGRTFIYAWS`
A) 11

Q) GET /values?readout=Counts Seq II&item= `HVRGDAWTVLG`
A) 93

Q) GET /values?readout=Counts Seq II&item= `SSFREYNHLPCT`
A) 299

Q) GET /values?readout=Counts Seq II&item= `CYGGRTFIYEWS`
A) 18

Q) GET /values?readout=Counts Seq II&item= `WRDRFDQCVP`
A) 23

Q) GET /values?readout=Counts Seq II&item= `CFAFRLSQTSV`
A) 63

Q) GET /values?readout=Counts Seq II&item= `FVAGNRDHTRG`
A) 7
